# Lookup of reported MC-1 EC50 (average; cAMP HBL) keyed by entry
# MEASURED ON: human melanocortin-1 receptor hMCR-1 expressed by the human melanoma cell line HBL (human, UniProt Q01726 1-317)
# Sequence (Q01726 whole entry): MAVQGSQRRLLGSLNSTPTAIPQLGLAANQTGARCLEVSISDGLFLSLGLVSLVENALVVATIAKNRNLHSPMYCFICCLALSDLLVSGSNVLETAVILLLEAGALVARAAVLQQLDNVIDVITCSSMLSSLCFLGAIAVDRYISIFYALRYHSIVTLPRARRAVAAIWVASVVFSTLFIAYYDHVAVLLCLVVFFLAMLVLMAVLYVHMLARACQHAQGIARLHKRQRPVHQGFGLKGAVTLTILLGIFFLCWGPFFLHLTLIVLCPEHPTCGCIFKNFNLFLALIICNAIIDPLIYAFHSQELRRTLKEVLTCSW
# TEST SUMMARY: cell-based or functional assay
Bridge positions count the residues as written; N and C are the ends. Square brackets hold non-standard residues; d marks the D form. dPhe(2-Cl) = N[C@H](Cc1ccccc1Cl)C(=O)O; Nle = CCCC[C@H](N)C(=O)O; Orn = NCCC[C@H](N)C(=O)O; Dab = NCC[C@H](N)C(=O)O
State just the number; it will be interpreted in pM.

[
  {
    "BINDER": "Ac-[Nle]EH[dF]A[Dab]W-NH2 (lactam 2-6; SMILES CCCC[C@H](NC(C)=O)C(=O)N[C@H]1CCC(=O)NCC[C@@H](C(=O)N[C@@H](Cc2c[nH]c3ccccc23)C(N)=O)NC(=O)[C@H](C)NC(=O)[C@@H](Cc2ccccc2)NC(=O)[C@H](Cc2c[nH]cn2)NC1=O) [Ac-Nle-cyclo(Glu-His-D-Phe-Ala-Dab)-Trp-NH2]",
    "MC-1 EC50 (average; cAMP HBL) / pM": 115
  },
  {
    "BINDER": "Ac-[Nle]E[Orn][dF]R[Dab]-NH2 (lactam 2-6; SMILES CCCC[C@H](NC(C)=O)C(=O)N[C@H]1CCC(=O)NCC[C@@H](C(N)=O)NC(=O)[C@H](CCCNC(=N)N)NC(=O)[C@@H](Cc2ccccc2)NC(=O)[C@H](CCCN)NC1=O) [Ac-Nle-cyclo(Glu-Orn-D-Phe-Arg-Dab)-NH2]",
    "MC-1 EC50 (average; cAMP HBL) / pM": 500
  }
]

MC-1 EC50 (average; cAMP HBL) measured on Ac-[Nle]E[Orn][dPhe(2-Cl)]R[Dab]-NH2 (lactam 2-6; SMILES CCCC[C@H](NC(C)=O)C(=O)N[C@H]1CCC(=O)NCC[C@@H](C(N)=O)NC(=O)[C@H](CCCNC(=N)N)NC(=O)[C@@H](Cc2ccccc2Cl)NC(=O)[C@H](CCCN)NC1=O) [Ac-Nle-cyclo(Glu-Orn-D-Phe(2-Cl)-Arg-Dab)-NH2] = 1000
